test system: P493 human lymphoma B cells; experiment: P493 cell proliferation assay; type: cell-based; conditions: P493-6, read-out: IC50 (growth of P493 cells)
assay.readout: IC50

Prompt: Name the reported IC50 value associated with the compound O=C(CCCCc1nnc(NC(=O)Cc2ccccc2)s1)NCCN1CCCC1 [Compound 29a]
Completion: ~40 µM
